Molecular target: human M4 receptor (Homo sapiens, UniProt P08173)
Construct: expressed in transfected cells
Sequence (P08173 whole entry): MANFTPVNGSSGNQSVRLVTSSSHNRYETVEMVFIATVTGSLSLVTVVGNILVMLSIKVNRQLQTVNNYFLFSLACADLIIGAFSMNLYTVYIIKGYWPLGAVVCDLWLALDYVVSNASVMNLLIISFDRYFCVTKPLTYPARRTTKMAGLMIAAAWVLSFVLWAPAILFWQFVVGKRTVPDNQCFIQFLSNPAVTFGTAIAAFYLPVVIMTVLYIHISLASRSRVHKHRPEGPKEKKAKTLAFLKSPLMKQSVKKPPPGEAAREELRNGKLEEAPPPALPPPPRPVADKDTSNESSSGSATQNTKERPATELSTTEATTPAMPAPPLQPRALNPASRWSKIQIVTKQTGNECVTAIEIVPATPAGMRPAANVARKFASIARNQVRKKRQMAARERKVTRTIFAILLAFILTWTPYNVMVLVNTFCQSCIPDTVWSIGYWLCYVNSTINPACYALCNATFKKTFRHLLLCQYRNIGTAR
Test: SPA GTP (GTPgS) binding curve shift assay, M4
Format: biochemical
Conditions: Emraclidine concentration 370 nM
Each item that follows carries a reported Emax at […].
Please append the unit to your numeric answer.

CC1OC2(CS1)CN1CCC2CC1 (stereo not shown) [cevimeline, Cevimeline, reference compound] | 49.2%
CCCCCCCOc1nsnc1C1=CCCCN1C | 60.1%
CCCCCOc1nsnc1C1=CCCCN1C | 46.5%

Proceeding to the next compound to report its Emax at […].
## Task Any idea what Emax at […] was measured for CCCCCCOc1nsnc1C1=CCCN(C)C1 [xanomeline, reference compound] ?
## Result 60%

Each recorded value in this set is attributed to patent US20250228832A1.
